target: CDK2/Cyclin E1 (Homo sapiens); experiment: CDK2/Cyclin E1 Caliper LabChip EZ Reader mobility shift assay; format: biochemical; design: purchased Eurofins 14-475; conditions: read-out: Caliper Assay (CDK2/CCNE1): IC50
result.type: IC50

Worked examples follow.
{"compound": "CNC(=O)[C@@H](NC(=O)[C@H]1CN(C(=O)c2sc(C)nc2C)CC12CN(C(=O)[C@H]1CC1(C)C)C2)[C@@H](C)OCC1CCCCC1 [I-213B]", "IC50": "> 10000 nM"}
{"compound": "CNC(=O)[C@@H](NC(=O)[C@H]1CN(C(=O)c2n[nH]c3ccccc23)CC12CN(C(=O)[C@H]1CC1(C)C)C2)[C@@H](C)OCc1ccccc1 [I-112B]", "IC50": "> 10000 nM"}
{"compound": "CNC(=O)[C@@H](NC(=O)[C@H]1CN(C(=O)c2cnn(Cc3ccccc3)c2)CC12CN(C(=O)CC1(COC)CC1)C2)[C@@H](C)OCc1ccccc1 [I-82B]", "IC50": "> 10000 nM"}

Working through the 8 compounds below one at a time, give IC50 for each.
1. CNC(=O)[C@@H](NC(=O)[C@H]1CN(C(=O)c2scnc2C2CC2)CC12CN(C(=O)[C@H]1CC1(C)C)C2)[C@@H](C)OCC1CCCCC1 [I-185B]
2. CNC(=O)[C@@H](NC(=O)[C@H]1CN(C(=O)c2cnn(Cc3ccccc3)c2)CC12CN(C(=O)CC1CC1)C2)[C@@H](C)OCc1ccccc1
3. C[C@@H](OCc1ccccc1)[C@H](NC(=O)C1CN(C(=O)c2cnn(Cc3ccccc3)c2)CC12CN(C(=O)[C@H]1CC1(C)C)C2)C(=O)NCC#CCO (some centres unmarked)
4. Cc1noc([C@H](C)NC(=O)[C@@H]2CN(C(=O)c3cnn(Cc4ccccc4)c3)CC23CN(C(=O)[C@H]2CC2(C)C)C3)n1 [I-158A]
5. CNC(=O)[C@@H](NC(=O)[C@H]1CN(C(=O)c2cnn(Cc3ccccc3)c2)CC12CN(C(=O)C(C)C)C2)[C@@H](C)OCc1ccccc1 [I-54B]
6. CNC(=O)[C@@H](NC(=O)[C@H]1CN(C(=O)c2cnn(Cc3ccccc3)c2)CC12CN(C(=O)[C@H]1CC1(C)C)C2)[C@@H](C)OCC(C)(C)C [I-130B]
7. CC(O[C@H](C)[C@H](NC(=O)[C@@H]1CN(C(=O)c2cncs2)CC12CN(C(=O)[C@H]1CC1(C)C)C2)C(=O)N1CCC(F)(F)CC1)C1CCC(F)(F)CC1 (some centres unmarked)
8. CNC(=O)[C@@H](NC(=O)C1(C)CN(C(=O)c2cnn(Cc3ccccc3)c2)CC12CN(C(=O)[C@H]1CC1(C)C)C2)[C@@H](C)OCc1ccccc1 (some centres unmarked)

Completion:
1: > 10000 nM; 2: 1000 to 10000 nM; 3: 10 to 100 nM; 4: > 10000 nM; 5: > 10000 nM; 6: 100 to 1000 nM; 7: ≤ 10 nM; 8: 1000 to 10000 nM
